Numbers sourced from patent US11530244B2.

target: human PCSK9 / human LDLR EGFa domain interaction (Homo sapiens (Human), UniProt Q8NBP7); assay: TR-FRET assay of inhibition of the PCSK9-LDLR protein-protein interaction; type: binding; conditions: TR-FRET, 20 nM human PCSK9, 20 nM human LDLR EGFa domain, 2 hours room temperature; read-out: IC50
Sequence (Q8NBP7 153-692): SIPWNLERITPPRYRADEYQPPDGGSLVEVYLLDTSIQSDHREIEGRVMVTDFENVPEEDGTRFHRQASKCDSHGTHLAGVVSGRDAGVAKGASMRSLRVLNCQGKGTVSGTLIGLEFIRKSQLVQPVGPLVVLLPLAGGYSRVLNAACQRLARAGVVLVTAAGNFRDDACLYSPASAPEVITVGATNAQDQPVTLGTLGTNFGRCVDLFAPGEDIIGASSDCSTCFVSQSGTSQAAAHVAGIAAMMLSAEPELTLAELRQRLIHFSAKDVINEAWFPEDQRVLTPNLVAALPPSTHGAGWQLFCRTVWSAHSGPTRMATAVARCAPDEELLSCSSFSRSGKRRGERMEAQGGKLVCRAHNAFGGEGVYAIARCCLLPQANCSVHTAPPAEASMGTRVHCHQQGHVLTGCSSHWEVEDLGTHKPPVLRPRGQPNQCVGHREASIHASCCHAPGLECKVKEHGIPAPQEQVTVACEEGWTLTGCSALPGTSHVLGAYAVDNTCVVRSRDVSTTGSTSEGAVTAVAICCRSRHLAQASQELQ
Sequence (Q8NBP7 31-152 partner): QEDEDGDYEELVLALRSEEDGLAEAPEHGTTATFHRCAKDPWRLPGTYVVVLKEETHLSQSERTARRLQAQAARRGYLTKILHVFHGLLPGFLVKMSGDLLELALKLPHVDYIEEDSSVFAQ
Starred links: 1 amine or outer side, 2 acyl side, 3 side chain; linkers in the order of their positions; H or OH if unused. Positions of bridges follow the written chain, without caps; N, C: chain ends. Non-standard residues stand in square brackets, D forms with d. Residues, ends and D or L forms follow the SMILES beside them. X25 = O=C([C@H](Cc1cccc(OCC=[*:3])c1)N[*:1])[*:2]; Trp(5-F) = N[C@@H](Cc1c[nH]c2ccc(F)cc12)C(=O)O; Pyridine(3,5-bisCH2) = c1ncc(C[*:2])cc1C[*:1]; X3 = O=C(CCSCc1cc(F)cc(CSCCN[*:1])c1)[*:2]; X42 = CN([C@@H](CCC=[*:3])C(=O)[*:2])[*:1]; αMeP = C[C@@]1(C(=O)O)CCCN1; Mpa = O=C(O)CCS
Listing: IC50 of selected compounds
endpoint name: IC50

compound="COc1ccc(C[C@@H]2NC(=O)[C@H]([C@@H](C)OC)NC(=O)[C@@H]3CC/C=C\\COc4cccc(c4)C[C@H](NC(=O)[C@@H](C)NC(=O)[C@H](C)NC(=O)CCSCc4cc(F)cc(c4)CSCCNC(=O)[C@]4(C)CCCN4C2=O)C(=O)N[C@@H](Cc2c[nH]c4ccc(F)cc24)C(=O)N3C)cc1 [Compound 505] (cyclo(A[dA][X25][Trp(5-F)][X42]T(Me)Y(Me)[αMeP][X3]); staple (Z) 3-5)" system="human PCSK9 / human LDLR EGFa domain interaction (Homo sapiens (Human), UniProt Q8NBP7)" endpoint_name=IC50 result="0.1 to 1 µM"
compound="COc1ccc(C[C@@H]2NC(=O)[C@H]([C@@H](C)O)NC(=O)[C@@H]3CCCN3C(=O)[C@H](Cc3c[nH]c4ccc(F)cc34)NC(=O)[C@H](Cc3c[nH]c4ccc(F)cc34)NC(=O)[C@@H](C)NC(=O)[C@H](CCCCN)NC(=O)CCSCc3cncc(c3)CSC[C@@H](C(N)=O)NC(=O)[C@]3(C)CCCN3C2=O)cc1 [Compound 058] ([Mpa]K[dA][Trp(5-F)][Trp(5-F)]PTY(Me)[αMeP]C-NH2; linker 1-10 via Pyridine(3,5-bisCH2))" system="human PCSK9 / human LDLR EGFa domain interaction (Homo sapiens (Human), UniProt Q8NBP7)" endpoint_name=IC50 result="0.0001 to 0.1 µM"

----------
Target: PCSK9 (Homo sapiens (Human))
Sequence (Q8NBP7 153-692): as the sequence (Q8NBP7 153-692) above
Test: PCSK9 Alexa FRET Standard assay (displacement of AlexaFluor647 tagged cyclic peptide Reagent A)
Format: binding
Conditions: PCSK9 Alexa FRET Standard assay, 0.5 nM PCSK9, 20 nM AF cyclic peptide Reagent A; read-out: IC50
Method: A solution containing 1 nM biotinylated PCSK9+2.5 nM Lance Streptavidin Europium (Strep-Eu) was made in 50 mM HEPES pH 7.4, 0.15 M NaCl, 5 mM CaCl2), 0.01% BSA, and 0.01% Surfactant P20. […] The reaction was incubated at room temperature for at least two hours prior to fluorescence measurements using an Envision Multilabel Reader. IC50 values were determined by fitting data to a sigmoidal dose-response curve using nonlinear regression. […]
Starred links: 1 amine or outer side, 2 acyl side, 3 side chain; linkers in the order of their positions; H or OH if unused. Positions of bridges follow the written chain, without caps; N, C: chain ends. Non-standard residues stand in square brackets, D forms with d. Residues, ends and D or L forms follow the SMILES beside them. Phe(4-COOH) = N[C@@H](Cc1ccc(C(=O)O)cc1)C(=O)O; Trp(5-F) = N[C@@H](Cc1c[nH]c2ccc(F)cc12)C(=O)O; Trp(6-F) = N[C@@H](Cc1c[nH]c2cc(F)ccc12)C(=O)O; Dip = N[C@H](C(=O)O)C(c1ccccc1)c1ccccc1; X36 = O=C([C@H](CC1=NC=NC1)N[*:1])[*:2]; X4 = O=C(CCSCc1cccc(CSCCN[*:1])c1)[*:2]; αMeP = C[C@@]1(C(=O)O)CCCN1; Ahx = NCCCCCC(=O)O
# IC50 listing for each entry below
endpoint name: IC50

molecule=COc1ccc(C[C@@H]2NC(=O)[C@@H]3CCCC(=O)N[C@@H]4C[C@H](C(=O)N3)N(C4)C(=O)[C@H](Cc3c[nH]c4ccc(F)cc34)NC(=O)[C@H](Cc3c[nH]c4ccc(F)cc34)NC(=O)[C@@H](C)NC(=O)[C@H](CCCCN)NC(=O)CCSCc3cccc(c3)CSCCNC(=O)[C@]3(C)CCCN3C2=O)cc1 result="0.11 to 100 nM"
molecule="C[C@@]12CCCN1C(=O)[C@H](Cc1ccc(O)cc1)NC(=O)[C@H](Cc1cnc[nH]1)NC(=O)[C@H](CC(=O)O)NC(=O)[C@H](Cc1c[nH]c3cc(F)ccc13)NC(=O)[C@H](Cc1c[nH]c3ccc(F)cc13)NC(=O)CNC(=O)CCCCCNC(=O)c1ccc(cc1)C[C@@H](C(N)=O)NC2=O [Compound 313] ([Ahx]G[Trp(5-F)][Trp(6-F)]DHY[αMeP][Phe(4-COOH)]-NH2; lactam N-9)" result="1000 to 12100 nM"
molecule="COc1ccc(C[C@@H]2NC(=O)[C@H](CC3=NC=NC3)NC(=O)[C@H](CC(=O)O)NC(=O)[C@H](Cc3c[nH]c4ccc(F)cc34)NC(=O)[C@H](C(c3ccccc3)c3ccccc3)NC(=O)[C@@H](C)NC(=O)[C@H](CCCCN)NC(=O)CCSCc3cccc(c3)CSCCNC(=O)[C@]3(C)CCCN3C2=O)cc1 [Compound 275] (cyclo(D[X36]Y(Me)[αMeP][X4]K[dA][Dip][Trp(5-F)]))" result="0.11 to 100 nM"
